# System: HEK-293 cells
# ASSAY OVERVIEW: HEK-293 cytotoxicity detection (CellTiter-Glo)
# Format: cell-based
# MEASUREMENT CONDITIONS: Homo sapiens, 72 h, 72 h incubation, CellTiter-Glo luminescence, read-out: HEK293

COMPOUND	IC50
Cc1c(C(=O)Nc2ncnn2C)ccc(-c2nn3c(c2C(N)=O)Nc2ccc(N4CCN(CC5CCN(c6ccc(N7CCC(=O)NC7=O)cc6)CC5)CC4)cc2CC3)c1F [Example B93]	> 10 µM
Cc1ccnc(NC(=O)c2ccc(-c3nn4c(c3C(N)=O)Nc3ccc(N5CCN(CC6CCN(c7ccc(N8CCC(=O)NC8=O)cc7)CC6)CC5)cc3CC4)c(F)c2C)n1 [Example B43]	> 10 µM
Cc1cccc(NC(=O)c2ccc(-c3nn4c(c3C(N)=O)Nc3ccc(N5CCN(CC6CCN(c7ccc(N8CCC(=O)NC8=O)cc7)CC6)CC5)cc3CC4)cc2C)n1 [Example B21]	> 10 µM
Cc1c(C(=O)Nc2cn(C)cn2)ccc(-c2nn3c(c2C(N)=O)Nc2ccc(N4CCN(CCc5cc(F)c(C6CCC(=O)NC6=O)c(F)c5)CC4)cc2CC3)c1F (centres unmarked) [Example B88]	> 10 µM
COc1ccc(C(F)(F)F)cc1C(=O)NCc1ccc(-c2nn3c(c2C(N)=O)Nc2ccc(N4CCN(CC5CCN(c6ccc(N7CCC(=O)NC7=O)cc6)CC5)CC4)cc2CC3)cc1F [Example C26]	0.108 µM

---

# System: HEK-293 cells
# ASSAY OVERVIEW: HEK-293 cytotoxicity detection (CellTiter-Glo)
# Type: cell-based
# MEASUREMENT CONDITIONS: Homo sapiens, 72 h, 72 h incubation, CellTiter-Glo luminescence, read-out: HEK293

COMPOUND	IC50
NC(=O)c1c(-c2ccc(Oc3ccccc3)cc2)nn2c1Nc1ccc(NC3CCN(c4ccc5c(c4)C(=O)N(C4CCC(=O)NC4=O)C5=O)CC3)cc1CC2 (centres unmarked)	0.28 µM
NC(=O)c1c(-c2ccc(Oc3ccccc3)cc2F)nn2c1Nc1ccc(N3CCN(CC4CCN(c5ccc(N6CCC(=O)NC6=O)cc5)CC4)CC3)cc1CC2	0.0699 µM
COc1ccnc(NC(=O)c2ccc(-c3nn4c(c3C(N)=O)Nc3ccc(N5CCN(CC6CCN(c7ccc(N8CCC(=O)NC8=O)cc7)CC6)CC5)cc3CC4)cc2)c1	> 10 µM
Cc1cccc(NC(=O)c2ccc(-c3nn4c(c3C(N)=O)Nc3ccc(N5CCN(CCc6cc(F)c([C@H]7CCC(=O)NC7=O)c(F)c6)CC5)cc3CC4)c(F)c2C)n1	> 10 µM
Cc1cccc(NC(=O)c2cnc(-c3nn4c(c3C(N)=O)Nc3ccc(N5CCN(CC6CCN(c7ccc(N8CCC(=O)NC8=O)cc7)CC6)CC5)cc3CC4)cc2C)n1	> 10 µM
NC(=O)c1c(-c2ccc(C(=O)Nc3cc(C4CC4)ccn3)cc2)nn2c1Nc1ccc(N3CCN(CC4CCN(c5ccc(N6CCC(=O)NC6=O)cc5)CC4)CC3)cc1CC2	> 10 µM
Cc1cccc(NC(=O)c2ccc(-c3nn4c(c3C(N)=O)Nc3ccc(N5CCN(CC6CCN(c7cc8c(cc7F)CN(C7CCC(=O)NC7=O)C8=O)CC6)CC5)cc3CC4)c(F)c2C)n1 (centres unmarked)	> 10 µM
Cc1cccc(NC(=O)c2ccc(-c3nn4c(c3C(N)=O)Nc3ccc(N5CCN(CCc6cc(F)c(C7CCC(=O)NC7=O)c(F)c6)CC5)cc3CC4)c(F)c2C)n1 (centres unmarked)	> 10 µM
COc1ccccc1C(=O)NCc1cc(F)c(-c2nn3c(c2C(N)=O)Nc2ccc(N4CCN(CC5CCN(c6ccc(N7CCC(=O)NC7=O)cc6)CC5)CC4)cc2CC3)cc1C	> 10 µM
Cc1cc(Cl)cc(NC(=O)c2ccc(-c3nn4c(c3C(N)=O)Nc3ccc(N5CCN(CC6CCN(c7ccc(N8CCC(=O)NC8=O)cc7)CC6)CC5)cc3CC4)c(F)c2C)n1	> 10 µM
NC(=O)c1c(-c2ccc(C(=O)Nc3cc(C(F)(F)F)ccn3)cc2F)nn2c1Nc1ccc(N3CCN(CC4CCN(c5ccc(N6CCC(=O)NC6=O)cc5)CC4)CC3)cc1CC2	> 10 µM

---

IC50: recorded values
# Tested on: HEK-293 cells
# ASSAY OVERVIEW: HEK-293 cytotoxicity detection (CellTiter-Glo)
# Format: cell-based
# MEASUREMENT CONDITIONS: Homo sapiens, 72 h, 72 h incubation, CellTiter-Glo luminescence, read-out: HEK293
PARAMETER MEASURED: IC50 (nM)

COMPOUND	PARAMETER MEASURED	VALUE PREFIX	EXPERIMENTAL VALUE
Cc1cccc(NC(=O)c2ncc(-c3nn4c(c3C#N)Nc3ccc(N5CCN(CC6CCN(c7ccc(N8CCC(=O)NC8=O)cc7)CC6)CC5)cc3CC4)cc2C)n1	IC50	=	133
Cc1cc(-c2nn3c(c2C(N)=O)Nc2ccc(N4CCN(CC5CCN(c6ccc(N7CCC(=O)NC7=O)cc6)CC5)CC4)cc2CC3)cc(C)c1C(=O)Nc1cc(C(F)(F)F)ccn1	IC50	>	10000
Cc1cc(N2CCC(CN3CCN(c4ccc5c(c4)CCn4nc(-c6ccc(C(=O)Nc7cc(C(F)(F)F)ccn7)cc6)c(C(N)=O)c4N5)CC3)CC2)ccc1N1CCC(=O)NC1=O	IC50	=	88.8
NC(=O)c1c(-c2ccc(Oc3ccccc3)cc2)nn2c1Nc1cc(C3CCN(CCc4ccc(C5CCC(=O)NC5=O)cc4)CC3)ccc1CC2 (stereo not shown)	IC50	=	337
COc1ccc2ccccc2c1C(=O)N[C@H](C)c1ccc(-c2nn3c(c2C(N)=O)Nc2ccc(N4CCN(CC5CCN(c6ccc(N7CCC(=O)NC7=O)cc6)CC5)CC4)cc2CC3)cc1	IC50	>	10000
Cc1c(C(=O)Nc2cscn2)ccc(-c2nn3c(c2C(N)=O)Nc2ccc(N4CCN(CC5CCN(c6ccc(CN7CCC(=O)NC7=O)cc6)CC5)CC4)cc2CC3)c1F	IC50	>	10000
Cc1cccc(NC(=O)c2ccc(-c3nn4c(c3C(N)=O)Nc3ccc(N5CCN(CC6CCN(c7ccc(N8CCC(=O)NC8=O)cc7)CC6)CC5)cc3CC4)cc2Cl)n1	IC50	>	10000
NC(=O)c1c(-c2ccc(C(=O)Nc3cc(C(F)(F)F)ccn3)cc2)nn2c1Nc1ccc(N3CCN(CC4CCN(c5ccc(N6CCC(=O)NC6=O)cc5)CC4)CC3)cc1CC2	IC50	>	10000
NC(=O)c1c(-c2ccc(Oc3ccccc3)cc2)nn2c1Nc1cc(C3CCN(CCc4ccc(N5CCC(=O)NC5=O)cc4)CC3)ccc1CC2	IC50	=	314
NC(=O)c1c(-c2ccc(Oc3ccccc3)cc2)nn2c1Nc1ccc(NC3CCN(CC4CCN(c5cc6c(cc5F)C(=O)N(C5CCC(=O)NC5=O)C6=O)CC4)CC3)cc1CC2 (stereo not shown)	IC50	=	83.3
Cc1cccc(NC(=O)c2ccc(-c3nn4c(c3C(N)=O)Nc3ccc(N5CCN(C6CN(C7CN(c8ccc(C9CCC(=O)NC9=O)cc8)C7)C6)CC5)cc3CC4)c(F)c2C)n1 (stereo not shown)	IC50	=	98.8
NC(=O)c1c(-c2ccc(Oc3ccccc3)cc2)nn2c1Nc1ccc(C3CCN(CC4CCN(c5ccc(N6CCC(=O)NC6=O)cc5)CC4)CC3)cc1CC2	IC50	=	28.7
NC(=O)c1c(-c2ccc(Oc3ccccc3)cc2)nn2c1Nc1ccc(OCCC3CCN(c4ccc(N5CCC(=O)NC5=O)cc4)CC3)cc1CC2	IC50	=	235
COc1ccc(C)cc1C(=O)NCc1ccc(-c2nn3c(c2C(N)=O)Nc2ccc(N4CCN(CC5CCN(c6ccc(N7CCC(=O)NC7=O)cc6)CC5)CC4)cc2CC3)cc1	IC50	>	10000
NC(=O)c1c(-c2ccc(C(=O)Nc3cc(C(F)(F)F)ccn3)c(F)c2)nn2c1Nc1ccc(N3CCN(CC4CCN(c5ccc(N6CCC(=O)NC6=O)cc5)CC4)CC3)cc1CC2	IC50	=	301
NC(=O)c1c(-c2ccc(C(=O)Nc3nccc(C(F)(F)F)c3F)cc2)nn2c1Nc1ccc(N3CCN(CC4CCN(c5ccc(N6CCC(=O)NC6=O)cc5)CC4)CC3)cc1CC2	IC50	=	180

---

# Test system: HEK-293 cells
# ASSAY OVERVIEW: HEK-293 cytotoxicity detection (CellTiter-Glo)
# Format: cell-based
# MEASUREMENT CONDITIONS: Homo sapiens, 72 h, 72 h incubation, CellTiter-Glo luminescence, read-out: HEK293
PARAMETER MEASURED: IC50

                                   compound  experimental_value
0  NC(=O)c1c(-c2ccc(Oc3ccccc3)cc2)nn2c1Nc1ccc(NC(=O)C3CCN(c4cccc5c4C(=O)N(C4CCC(=O)NC4=O)C5=O)CC3)cc1CC2 (stereo not drawn)            0.826 µM
1  COc1cc(C(=O)Nc2cccc(C)n2)ccc1-c1nn2c(c1C(N)=O)Nc1ccc(N3CCN(CC4CCN(c5ccc(N6CCC(=O)NC6=O)cc5)CC4)CC3)cc1CC2             > 10 µM
2  Cc1nc(NC(=O)c2ccc(-c3nn4c(c3C(N)=O)Nc3ccc(N5CCN(CC6CCN(c7ccc(N8CCC(=O)NC8=O)cc7)CC6)CC5)nc3CC4)c(F)c2C)ccc1Cl             > 10 µM
